- method_notes: Cytotoxicity assay (Alamar Blue) on L6-cells
- Assay type: cell-based, rat
- test_context: rat myoblast L6 cells; read-out: Cytotox L6 IC50
Square brackets hold non-standard residues; d marks the D form. Peptide text beside a SMILES is read from it. * marks the point of attachment. NH((S)CH(Me)CH2NMe2) = C[C@@H](CN(C)C)N*; NH(1-CH2NMe2-cBu) = CN(C)CC1(N*)CCC1; Gly(octyl) = CCCCCCCC[C@H](N)C(=O)O; Oxazole4CO(2-Me) = Cc1nc(C(=O)*)co1; Thiophene2carbonyl = O=C(c1cccs1)*; Benzoyl(4-F) = O=C(c1ccc(F)cc1)*; hCha = N[C@@H](CCC1CCCCC1)C(=O)O; X10 = O=C(c1ccc2cccnc2c1)*; Aib = CC(C)(N)C(=O)O; X11 = CN(CCN*)CC(F)F; Bz = O=C(c1ccccc1)*; βAla = NCCC(=O)O
reported_property: IC50 at 68 h (µM)
Enter your answer as a number in µM; do not include the unit.

INSERT INTO results (molecule, units_of_measure, number) VALUES
  ('Cc1nc(C(=O)N2CCC[C@H]2C(=O)N[C@@H](CCC2CCCCC2)C(=O)N[C@@H](CC(C)C)C(=O)NC(C)(C)C(=O)N[C@@H](CC(C)C)C(=O)N[C@@H](CC(C)C)C(=O)NC(C)(C)C(=O)NC(C)(C)C(=O)NCCC(=O)NCCN(C)CC(F)F)co1 [Compound 6488] ({Oxazole4CO(2-Me)}-P[hCha]L[Aib]LL[Aib][Aib][βAla]-X11)', 'µM', 7.18),
  ('CC(C)C[C@H](NC(=O)[C@H](CCC1CCCCC1)NC(=O)[C@@H]1CCCN1C(=O)c1ccc(F)cc1)C(=O)NC(C)(C)C(=O)N[C@@H](CC(C)C)C(=O)N[C@@H](CC(C)C)C(=O)NC(C)(C)C(=O)NC(C)(C)C(=O)NCCC(=O)NCCN(C)CC(F)F [Compound 8342] ({Benzoyl(4-F)}-P[hCha]L[Aib]LL[Aib][Aib][βAla]-X11)', 'µM', 6.79),
  ('CCCCCCCC[C@H](NC(=O)[C@@H]1CCCN1C(=O)c1ccccc1)C(=O)N[C@@H](CC(C)C)C(=O)NC(C)(C)C(=O)N[C@@H](CC(C)C)C(=O)N[C@@H](CC(C)C)C(=O)NC(C)(C)C(=O)NC(C)(C)C(=O)NCCC(=O)N[C@@H](C)CN(C)C [Compound 5649] (Bz-P[Gly(octyl)]L[Aib]LL[Aib][Aib][βAla]-{NH((S)CH(Me)CH2NMe2)})', 'µM', 0.274),
  ('CCCCCCCC[C@H](NC(=O)[C@@H]1CCCN1C(=O)c1cccs1)C(=O)N[C@@H](CC(C)C)C(=O)NC(C)(C)C(=O)N[C@@H](CC(C)C)C(=O)N[C@@H](CC(C)C)C(=O)NC(C)(C)C(=O)NC(C)(C)C(=O)NCCC(=O)N[C@@H](C)CN(C)C [Compound 5904] (Thiophene2carbonyl-P[Gly(octyl)]L[Aib]LL[Aib][Aib][βAla]-{NH((S)CH(Me)CH2NMe2)})', 'µM', 0.216),
  ('COc1ccc(C[C@H](NC(=O)[C@@H]2CCCN2C(=O)c2coc(C)n2)C(=O)N[C@@H](CC(C)C)C(=O)NC(C)(C)C(=O)N[C@@H](CC(C)C)C(=O)N[C@@H](CC(C)C)C(=O)NC(C)(C)C(=O)NC(C)(C)C(=O)NCCC(=O)NC2(CN(C)C)CCC2)cc1 [Compound 6896] ({Oxazole4CO(2-Me)}-PY(Me)L[Aib]LL[Aib][Aib][βAla]-{NH(1-CH2NMe2-cBu)})', 'µM', 8.49);

For the next question, use this molecule.
Q. Data request, read-out IC50 at 68 h, for CCCCCCCC[C@H](NC(=O)[C@@H]1CCCN1C(=O)c1ccc2cccnc2c1)C(=O)N[C@@H](CC(C)C)C(=O)NC(C)(C)C(=O)N[C@@H](CC(C)C)C(=O)N[C@@H](CC(C)C)C(=O)NC(C)(C)C(=O)NC(C)(C)C(=O)NCCC(=O)N[C@@H](C)CN(C)C [Compound 5938] (X10-P[Gly(octyl)]L[Aib]LL[Aib][Aib][βAla]-{NH((S)CH(Me)CH2NMe2)})
A. 0.714
